experimental.system: T1, human CD79B on the surface of cells (DoHH2 / DOHH-2, WSU-DLCL2) (human, UniProt P40259 29-229)
T1 sequence (looked up): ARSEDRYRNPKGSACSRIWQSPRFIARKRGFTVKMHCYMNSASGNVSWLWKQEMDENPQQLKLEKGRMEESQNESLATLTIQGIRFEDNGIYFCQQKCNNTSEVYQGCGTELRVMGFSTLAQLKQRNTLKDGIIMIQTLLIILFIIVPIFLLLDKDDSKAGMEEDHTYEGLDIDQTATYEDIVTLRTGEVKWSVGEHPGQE
protocol.details: cell-based or functional assay
Entries and their IC50 of in vitro proliferation, WSU-DLCL2 cells (MTT, 72 h) values follow.
Answer as a quantity: numeral, then unit.

Example binders with recorded IC50 of in vitro proliferation, WSU-DLCL2 cells (MTT, 72 h):
- binder: "ADC-6 (antibody, human IgG1, kappa, V domains shown, compound D coupled to cysteines after TCEP reduction; positions not given; compound D (exatecan-type linker-drug, Topo I inhibitor) coupled to cysteines after TCEP reduction; positions not given; mean n=3.46 per antibody) VH: EVQLVQSGAEVKKPGSSVKVSCKASGSSFSSYGINWVKQAPGQGLEWIGEIFPRSGNTYYNEKFEGRATLTADKSTSTAYMELRSLRSEDTAVYYCAKGDLGDFDYWGQGTTVTVSS VL: DFVMTQTPLSLPVTPGEPASISCRSSQSIVHSDGNTYFEWYLQKPGQSPKLLIYKVSNRFSGVPDRFSGSGSGTDFTLKISRVEAEDVGVYYCFQGSHVPWTFGGGTKVEIKR"
  endpoint.value: "0.0542 µg/mL"
- binder: "ADC-3 (antibody, human IgG1, kappa, V domains shown, MC-vc-PAB-MMAE coupled to cysteines after TCEP reduction; positions not given; MC-vc-PAB-MMAE coupled to cysteines after TCEP reduction; positions not given; mean n=3.09 per antibody, Antibody-drug conjugate of hAb015-10; DAR 3.09; also called hAb015-10-cys-MC-vc-PAB-MMAE) VH: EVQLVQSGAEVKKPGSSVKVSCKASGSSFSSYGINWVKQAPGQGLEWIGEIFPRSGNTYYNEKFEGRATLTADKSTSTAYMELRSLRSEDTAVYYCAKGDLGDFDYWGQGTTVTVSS VL: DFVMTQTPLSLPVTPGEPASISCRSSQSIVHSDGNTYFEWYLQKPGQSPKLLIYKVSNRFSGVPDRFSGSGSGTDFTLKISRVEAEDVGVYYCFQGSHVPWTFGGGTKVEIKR"
  endpoint.value: "0.0059 µg/mL"
- binder: "ADC-7 (antibody, human IgG1, kappa, V domains shown, compound D coupled to cysteines after TCEP reduction; positions not given; compound D (exatecan-type linker-drug, Topo I inhibitor) coupled to cysteines after TCEP reduction; positions not given; mean n=5.84 per antibody) VH: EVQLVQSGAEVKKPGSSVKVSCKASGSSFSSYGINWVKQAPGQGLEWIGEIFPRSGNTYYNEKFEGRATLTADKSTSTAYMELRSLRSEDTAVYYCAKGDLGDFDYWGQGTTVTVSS VL: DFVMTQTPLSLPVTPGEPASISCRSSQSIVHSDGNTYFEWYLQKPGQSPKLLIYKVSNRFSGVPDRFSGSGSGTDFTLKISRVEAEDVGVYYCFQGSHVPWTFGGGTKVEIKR"
  endpoint.value: "0.0534 µg/mL"

Consider the record given below.
Q: Return IC50 of in vitro proliferation, WSU-DLCL2 cells (MTT, 72 h) (reported value) for this binder: ADC-8 (antibody, human IgG1, kappa, V domains shown, MC-VC-PAB-MMAE coupled to cysteines after TCEP reduction; positions not given; MC-VC-PAB-MMAE coupled to cysteines after TCEP reduction; positions not given; mean n=3.59 per antibody) VH: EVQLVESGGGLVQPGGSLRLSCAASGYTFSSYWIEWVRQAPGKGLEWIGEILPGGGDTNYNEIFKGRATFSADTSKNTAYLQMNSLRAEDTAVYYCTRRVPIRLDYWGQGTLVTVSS VL: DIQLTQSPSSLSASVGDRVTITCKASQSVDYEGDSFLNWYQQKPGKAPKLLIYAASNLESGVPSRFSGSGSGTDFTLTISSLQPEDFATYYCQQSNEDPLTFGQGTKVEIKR
A: 0.117 µg/mL
